Cited source for all entries: PubChem BioAssay (NCI)

- System: LOX IMVI melanoma
- assay_remarks: NCI-60 one-dose screen, 48 h (100 = growth as untreated, 0 = no growth, -100 = all killed)
- measurement_parameters: 10 µM unless noted
Compounds without any hit were thinned out: in the full panel of roughly 83,000, 20% have a hit.
Class rule met: growth at least 90%. Class rule not met: growth below 90%.

compound	discrete_label
N#CC(N)c1ccccc1 (configuration not stated)	rule met
C(=NC1CCCCC1)=NC1CCCCC1	rule met
NC(N)=NC(N)=Nc1ccc(Cl)cc1	rule met
CCN1C(=O)NC(=O)C(C)(N2C(=O)c3c(F)c(F)c(F)c(F)c3C2=O)C1=O (configuration not stated)	rule not met
COc1cc(C2C3=C(CCCC3=O)N(CCO)c3cc4c(cc32)CCC4)cc(OC)c1OC (configuration not stated)	rule not met
O=C1C=C(N2CC2)c2ccccc2C1=O	rule not met
C=C[Se]CC(=O)/C=C/c1ccccc1	rule met
